Cited source: patent US20150238641A1

- study_target: T1, human bradykinin B1 receptor (human, UniProt P46663 1-353)
- T1 construct: whole, on cells; Assays were run on cell membrane preparations (50 ug/well), not on intact cells; HEK293T::GFP::hB1R membranes appear only in the saturation assay; also called hB1R; BDKRB1
- T1 sequence (looked up): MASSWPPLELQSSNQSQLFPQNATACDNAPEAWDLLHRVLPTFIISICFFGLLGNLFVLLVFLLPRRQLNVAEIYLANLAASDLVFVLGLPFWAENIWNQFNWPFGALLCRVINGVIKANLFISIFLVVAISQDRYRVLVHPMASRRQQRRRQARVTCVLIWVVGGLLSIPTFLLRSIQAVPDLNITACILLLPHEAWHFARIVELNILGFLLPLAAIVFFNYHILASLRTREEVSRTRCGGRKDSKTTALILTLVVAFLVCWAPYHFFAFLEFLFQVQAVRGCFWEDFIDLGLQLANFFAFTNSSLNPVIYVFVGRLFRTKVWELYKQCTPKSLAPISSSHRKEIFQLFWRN
- method_summary: competitive radioligand binding; hot ligand BK-ANT-ARC 4.6 nM; CHO-K1 hB1R membranes
Where no end group is shown, it is not given here. [ ]: non-standard residue; d: D form. The star is where a group is joined. DOTA = O=C(O)CN1CCN(CC(=O)O)CCN(CC(=O)*)CCN(CC(=O)O)CC1; Hyp = O=C(O)[C@@H]1C[C@@H](O)CN1; Cha = N[C@@H](CC1CCCCC1)C(=O)O
Recorded pKi by entry
# pKi = -log10(concentration in molar units)

binder: H-KRPPGFSPL-OH (Unlabelled control B1R antagonist bought from Bachem; also called Lys[Leu^8]-des-Arg^9-BK; [Leu^9,des-Arg^10]kallidin) [H-Lys-Arg-Pro-Pro-Gly-Phe-Ser-Pro-Leu-OH (BK-ANT, Bachem H-2582)]
pKi: 9.31

--- query ---
*Q* So what does the record say about pKi for {DOTA}-GGKRP[Hyp]G[Cha]SPL (also: Ga loaded in DOTA, 68Ga-labelled in vivo) [Peptide 8: Ga-DOTA-Gly-Gly-Lys-Arg-Pro-Hyp-Gly-Cha-Ser-Pro-Leu] ?
*A* 7.87
